# Tested on: recombinant NL4-3 virus (nef section replaced with Renilla luciferase gene) in MT-2 cells
# Experimental protocol: whole plant or invertebrate
# Format: cell-based, HIV
# Assay context: NL43, luciferase activity in MT-2 cells infected 4-5 days with recombinant NL4-3 virus, read-out: Activity
Counter-ions that a name gives are not always drawn.
Below is a list of entries, each paired with its recorded EC50 value.

Here is how some compounds turned out for EC50.
{"Compound": "O=C(N[C@H](Cc1cc(F)cc(F)c1)c1ncccc1-c1cncc(F)c1)NS(=O)(=O)c1ccccc1Cl [Example 110, TFA]", "Obs value": "> 1000 nM"}
{"Compound": "Cc1ccccc1S(=O)(=O)NC(=O)N[C@@H](Cc1ccccc1)c1nccn1-c1cccc(-c2ccoc2)c1", "Obs value": "100 to 1000 nM"}

query: What reported EC50 corresponds to Cc1ccccc1-n1ccnc1[C@H](Cc1ccccc1)NC(=O)NS(=O)(=O)c1ccccc1C on recombinant NL4-3 virus (nef section replaced with Renilla luciferase gene) in MT-2 cells?
result: > 1000 nM

query: What reported EC50 corresponds to O=C(NC(Cc1ccccc1)c1ncccc1-c1ccc2ccncc2c1)NS(=O)(=O)c1ccccc1Cl (stereo in doubt) [Example 108, TFA] on recombinant NL4-3 virus (nef section replaced with Renilla luciferase gene) in MT-2 cells?
result: > 1000 nM

###

Each entry below carries its recorded EC50.
# Test system: recombinant NL4-3 virus (nef section replaced with Renilla luciferase gene) in MT-2 cells
# Experimental protocol: whole plant or invertebrate
# Type: cell-based, HIV
# Assay context: NL43, luciferase activity in MT-2 cells infected 4-5 days with recombinant NL4-3 virus, read-out: EC50
# From the text: A recombinant NL4-3 proviral clone, in which a section of the nef gene was replaced with the Renilla luciferase gene, was used to make the reference virus used in these studies. Supernatent was harvested after 2-3 days and the amount of virus present was titered in MT-2 cells using luciferase enzyme activity as a marker by measuring luciferase enzyme activity. Luciferase was quantitated using the EnduRen Live Cell Substrate from Promega (Madison, Wis.). […]
Structures can show the parent of a compound that is named as a salt.
Write the answer as a number in nM, unit excluded.

Recorded results for 3 compounds are shown here.
{"Compound": "Cc1ccccc1S(=O)(=O)NC(=O)N[C@@H](Cc1ccccc1)c1nccn1-c1ccc(OCc2ccccc2)cc1 [Example 30]", "Unit tag": "nM", "Obs value": 280}
{"Compound": "COC(=O)Nc1ccc(-c2cccnc2[C@@H](Cc2ccccc2)NC(=O)NS(=O)(=O)c2ccccc2Cl)cc1 [Example 111, TFA]", "Unit tag": "nM", "Obs value": 30400}
{"Compound": "O=C(N[C@@H](Cc1ccccc1)c1nccn1-c1ccc2c(c1)CCO2)NS(=O)(=O)c1ccccc1F [Example 75]", "Unit tag": "nM", "Obs value": 20}

Consider now this further compound.
query: Which EC50 value belongs to COC(=O)Nc1ccc(-n2ccnc2[C@H](Cc2ccccc2)NC(=O)NS(=O)(=O)Cc2cccc(Cl)c2)cc1 [Example 48] ?
result: 70

###

The compounds listed here are annotated with their CC50 at 4 day.
# Experimental protocol: Compound cytotoxicity (CC50), XTT-based colorimetric assay
# Format: cell-based
# Assay context: human; uninfected MT2 cells, day 4, XTT assay
Where a name gives a salt, the structure may show the parent alone.

Worked cases, CC50 at 4 day given:
{"Compound": "COC(=O)Nc1cccc(-n2ccnc2[C@H](Cc2ccccc2)NC(=O)NS(=O)(=O)c2ccccc2C)c1", "CC50 at 4 day": "> 100 µM"}
{"Compound": "COC(=O)Nc1ccc(-n2ccnc2[C@H](Cc2ccccc2)NC(=O)NS(=O)(=O)Cc2ccccc2)cc1", "CC50 at 4 day": "> 33 µM"}
{"Compound": "COC(=O)Nc1ccc(-n2ccnc2[C@H](Cc2ccccc2)NC(=O)NS(=O)(=O)c2ccccc2OC)cc1", "CC50 at 4 day": "> 100 µM"}
{"Compound": "Cc1ccccc1S(=O)(=O)NC(=O)N[C@H](Cc1cc(F)cc(F)c1)c1ncccc1-c1cncc(F)c1 [Example 103, TFA]", "CC50 at 4 day": "> 100 µM"}
{"Compound": "COc1ccc(-n2ccnc2[C@H](Cc2ccccc2)NC(=O)NS(=O)(=O)c2ccccc2F)cc1", "CC50 at 4 day": "> 33 µM"}

query: Suppose we examine the compound COC(=O)Nc1ccc(-c2cccnc2C(Cc2ccccc2)NC(=O)NS(=O)(=O)c2ccccc2Cl)cc1 (stereo not shown) [Example 118, TFA] ; what CC50 at 4 day value has been reported?
result: > 100 µM

query: Quick one: CC50 at 4 day of Cc1ccccc1S(=O)(=O)NC(=O)N[C@@H](Cc1ccccc1)c1nccn1-c1ccc(OC(F)(F)F)cc1 ?
result: 59 µM

###

Each record here notes measured EC50.
# Test system: recombinant NL4-3 virus (nef section replaced with Renilla luciferase gene) in MT-2 cells
# Experimental protocol: whole plant or invertebrate
# Type: cell-based, HIV
# Assay context: NL43, luciferase activity in MT-2 cells infected 4-5 days with recombinant NL4-3 virus, read-out: EC50
Counter-ions that a name gives are not always drawn.
Could you give me the number in µM? Just the number is fine.

Sample records with EC50:
{"Compound": "Cc1ccccc1S(=O)(=O)NC(=O)N[C@@H](Cc1ccccc1)c1nccn1-c1ccc(OC(C)C)cc1", "EC50, µM": 0.05}
{"Compound": "COC(=O)Nc1ccc(-n2ccnc2[C@H](Cc2ccccc2)NC(=O)NS(=O)(=O)c2ccccc2OC(F)(F)F)cc1", "EC50, µM": 0.06}

query: So what's the measured EC50 for this one? Cc1ccccc1S(=O)(=O)NC(=O)N[C@@H](Cc1cc(F)cc(F)c1)c1ncccc1-c1ccc(F)c2ccccc12 [Example 132, TFA]
result: 4.81

query: Which EC50 value is on record for COC(=O)Nc1ccc(-n2ccnc2[C@H](Cc2ccccc2)NC(=O)NS(=O)(=O)c2cccc(Cl)c2Cl)cc1 ?
result: 0.16

query: // EC50 lookup, key: Cc1ccccc1S(=O)(=O)NC(=O)N[C@@H](Cc1ccccc1)c1nccn1-c1ccc(N)cc1
result: 0.04

query: Would you mind telling me what EC50 value was observed for Cc1ccccc1S(=O)(=O)NC(=O)N[C@@H](Cc1cc(F)cc(F)c1)c1ncccc1-c1ccc2ccncc2c1 ?
result: 0.23

query: Dear colleague, I am looking for the recorded EC50 of the following compound: COc1ccc(-c2c(C(Cc3ccccc3)NC(=O)NS(=O)(=O)c3ccccc3C)nnn2C)cc1 (racemic)
result: 0.22

###

# Experimental protocol: Compound cytotoxicity (CC50), XTT-based colorimetric assay
# Type: cell-based
# Assay context: human; uninfected MT2 cells, day 4, XTT assay
Where a name gives a salt, the structure may show the parent alone.
Parameter: CC50 at 4 day

{"Molecule": "COC(=O)Nc1ccc(-n2ccnc2[C@H](Cc2ccccc2)NC(=O)NS(=O)(=O)Cc2cccc(Cl)c2)cc1", "Obs value": "> 100 µM"}
{"Molecule": "COC(=O)Nc1ccc(-n2ccnc2[C@H](Cc2ccccc2)NC(=O)NS(=O)(=O)C(C)C)cc1", "Obs value": "> 100 µM"}
{"Molecule": "COC(=O)Nc1ccc(-n2ccnc2[C@H](Cc2ccccc2)NC(=O)NS(=O)(=O)c2c(F)cccc2F)cc1", "Obs value": "> 100 µM"}

We next turn to a different molecule, shown below.
query: // returns reported CC50 at 4 day for input O=C(N[C@H](Cc1cc(F)cc(F)c1)c1ncccc1-c1cncc(F)c1)NS(=O)(=O)c1ccccc1Cl [Example 110, TFA]
result: > 33 µM

###

# Tested on: recombinant NL4-3 virus (nef section replaced with Renilla luciferase gene) in MT-2 cells
# Experimental protocol: whole plant or invertebrate
# Format: cell-based, HIV
# Assay context: NL43, luciferase activity in MT-2 cells infected 4-5 days with recombinant NL4-3 virus, read-out: EC50
Counter-ions that a name gives are not always drawn.
Parameter: pEC50
FYI, pEC50 means -log10 of a concentration in mol per litre.

{"Compound": "Cc1ccccc1S(=O)(=O)NC(=O)N[C@@H](Cc1ccccc1)c1nccn1-c1ccc2c(c1)ncn2C", "pEC50": 6.47}

query: What value of measured pEC50 is listed for CCOc1ccc(-n2ccnc2[C@H](Cc2ccccc2)NC(=O)NS(=O)(=O)c2cccc(Cl)c2Cl)cc1 ?
result: 7.52

query: Param item = COc1ccc(-c2cccnc2C(Cc2cc(F)cc(F)c2)NC(=O)NS(=O)(=O)c2ccccc2Cl)cc1 (stereo in doubt) [Example 114, TFA] ; retrieve measured pEC50.
result: 4.46

###

# Experimental protocol: Compound cytotoxicity (CC50), XTT-based colorimetric assay
# Assay type: cell-based
# Assay context: human; uninfected MT2 cells, day 4, XTT assay
Where a name gives a salt, the structure may show the parent alone.
Parameter: CC50 at 4 day

Previously resolved entries follow.
{"Compound": "COc1ccc(Cn2ccnc2[C@H](Cc2ccccc2)NC(=O)NS(=O)(=O)c2ccccc2Cl)cc1", "CC50 at 4 day": "> 33 µM"}
{"Compound": "CCCC(=O)Nc1cccc(-n2ccnc2[C@H](Cc2ccccc2)NC(=O)NS(=O)(=O)c2ccccc2C)c1", "CC50 at 4 day": "> 100 µM"}
{"Compound": "O=C(N[C@@H](Cc1ccccc1)c1nccn1-c1ccc2c(c1)CCO2)NS(=O)(=O)c1ccccc1F", "CC50 at 4 day": "> 100 µM"}
{"Compound": "Cc1ccccc1S(=O)(=O)NC(=O)N[C@@H](Cc1ccccc1)c1nccn1-c1ccc2c(c1)CCO2", "CC50 at 4 day": "> 100 µM"}
{"Compound": "O=C(N[C@@H](Cc1ccccc1)c1nccn1-c1ccc2scnc2c1)NS(=O)(=O)c1ccccc1F", "CC50 at 4 day": "> 100 µM"}
{"Compound": "O=C(NC(Cc1cc(F)cc(F)c1)c1ncccc1Br)NS(=O)(=O)c1ccccc1Cl (stereo in doubt) [Example 113, TFA]", "CC50 at 4 day": "> 100 µM"}
{"Compound": "COc1ccccc1-n1ccnc1[C@H](Cc1ccccc1)NC(=O)NS(=O)(=O)c1ccccc1C", "CC50 at 4 day": "> 100 µM"}
{"Compound": "Cc1ccccc1S(=O)(=O)NC(=O)N[C@@H](Cc1ccccc1)c1nccn1-c1ccc(-c2ccsc2)cc1", "CC50 at 4 day": "> 100 µM"}

query: Look up CC50 at 4 day: COc1ccc(-n2ccnc2[C@H](Cc2ccccc2)NC(=O)NS(=O)(=O)c2ccccc2Cl)cc1
result: > 100 µM

query: Give its CC50 at 4 day value. Item: Cc1ccccc1S(=O)(=O)NC(=O)N[C@@H](Cc1ccccc1)c1nccn1-c1ccc(Cl)cc1
result: > 100 µM

query: Form field: reported CC50 at 4 day of COc1ccc(-n2ccnc2[C@H](Cc2ccccc2)NC(=O)NS(=O)(=O)c2cccc(Cl)c2Cl)cc1
result: > 100 µM

query: What measured CC50 at 4 day goes with COc1ccc(-n2ccnc2C(Cc2cc(F)cc(F)c2)NC(=O)NS(=O)(=O)c2ccccc2F)cc1 (racemic) ?
result: > 100 µM

query: Entry CC(=O)Nc1ccc(-n2ccnc2[C@H](Cc2ccccc2)NC(=O)NS(=O)(=O)c2ccccc2C)cc1 has what CC50 at 4 day?
result: > 33 µM

query: Look up CC50 at 4 day for this compound: Cc1ccccc1S(=O)(=O)NC(=O)N[C@@H](Cc1cc(F)cc(F)c1)c1ncccc1-c1ccc2ccncc2c1
result: > 100 µM

query: Tell me the measured CC50 at 4 day of CCOc1ccc(-c2cccnc2C(Cc2ccccc2)NC(=O)NS(=O)(=O)c2ccccc2C)cc1 (stereo not drawn) , please.
result: > 100 µM
